Data origin: patent US7638515B2

Please provide measured melting point for the entries that follow.
Numbers only, in °C.

| COMPOUND | UNITS OF MEASURE | EXPERIMENTAL RESULT |
| --- | --- | --- |
| Cc1ccc2c(NC3c4cc(O)ccc4C(C)(C)CC3(O)C(F)(F)F)cccc2n1 (stereo not drawn) | °C | 127 |

Pending compound:
Item COc1ccc2c(c1)C(Nc1cccc3nc(C)ccc13)C(O)(C(F)(F)F)CC2(C)C (stereo not drawn) has what recorded melting point? 85

###

Provide the reported melting point of each item.
One number for each entry, in °C.

Solved cases below.
| COMPOUND | EXPERIMENTAL RESULT |
| --- | --- |
| COc1cccc2c1CCC(O)(C(F)(F)F)C2Nc1cccc2[nH]c(=O)ccc12 (centres unmarked) | 228 |
| COc1ccc2c(c1)C(Nc1ccc(F)c3nc(C)ncc13)C(O)(C(F)(F)F)CC2(C)C (centres unmarked) | 97 |

Batch of 6 compounds: report melting point for each.
1. COc1ccc2c(c1)C(Nc1cccc3c(=O)[nH]ccc13)C(O)(C(F)(F)F)CC2(C)C (centres unmarked)
2. CC1(C)CC(O)(C(F)(F)F)C(Nc2cccc3c(=O)[nH]ncc23)c2cc(O)ccc21 (centres unmarked)
3. COc1ccc2c(c1)C(Nc1cccc3[nH]c(=O)ccc13)C(O)(C(F)(F)F)CC2(C)C (centres unmarked)
4. COc1cccc2c1CCC(O)(C(F)(F)F)C2Nc1ccc(F)c2nc(C)ncc12 (centres unmarked)
5. CC1(C)CC(O)(C(F)(F)F)C(Nc2cccc3[nH]c(=O)ccc23)c2cc(O)c(Cl)cc21 (centres unmarked)
6. COc1ccc2c(c1)C(Nc1cccc3c(=O)[nH]ncc13)C(O)(C(F)(F)F)CC2(C)C (centres unmarked)

112
116
128
132
158
197
